# study_system: RORγ ligand binding domain (LBD) (Homo sapiens)
# Construct: made in house; host or cells: E. coli BL-21 (BL3), vector pDEST15
# Sequence (P51449 269-508 limits assumed): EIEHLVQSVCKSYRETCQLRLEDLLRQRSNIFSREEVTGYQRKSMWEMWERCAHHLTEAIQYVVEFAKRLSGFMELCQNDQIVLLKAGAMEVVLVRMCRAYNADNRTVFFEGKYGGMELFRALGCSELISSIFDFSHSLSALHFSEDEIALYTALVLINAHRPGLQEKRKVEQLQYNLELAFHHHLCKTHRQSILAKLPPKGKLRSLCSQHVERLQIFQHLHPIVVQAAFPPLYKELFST
# test_details: TR-FRET Activity Assay (ligand sensing, RORγ-LBD / coactivator peptide interaction, LANCE)
# Type: biochemical
pIC50: −log10 of the molar value.

[
  {
    "molecule": "Cc1c(C(=O)NCCCCCN2CCOCC2)cc(-c2cc(C(C)(C)C)cc(C(C)(C)C)c2)n1CC1CCCCC1 [1/75]",
    "pIC50": 5.31
  },
  {
    "molecule": "Cc1c(C(=O)NCCN2CCOCC2)cc(-c2cc(C(C)(C)C)cc(C(C)(C)C)c2)n1CC1CCCCC1 [1/70]",
    "pIC50": 6.20
  },
  {
    "molecule": "Cc1c(C(=O)NCC2CCS(=O)(=O)CC2)cc(-c2cc(C(C)(C)O)cc(C3(C)CC3)c2)n1CC1CCCCC1 [17/320]",
    "pIC50": 5.80
  },
  {
    "molecule": "Cc1c(C(=O)NCC2(C(N)=O)CCOCC2)cc(-c2ccc(S(=O)(=O)NC(C)(C)C)c(C(C)(C)C)c2)n1CC1CCCCC1 [17/90]",
    "pIC50": 5.80
  }
]
